Measured activity at 10 µM, listed per entry.
# Tested on: hTERT expression
# MEASUREMENT_NOTES: SEAP assay in hTERT-BJ1-PTERT(3.4)-SEAP cells
# Format: cell-based
# CONDITION_DETAILS: Homo sapiens; BJ1; compound concentration 10 μM; read-out: SEAP (Inhibition μM ± SD)
Give just the numeric value; % need not be written.

Record excerpt, results attached:
1. O=C(CCCCl)Nc1ccc2c(c1)C(=O)c1cc(NC(=O)CCCCl)ccc1C2=O 42
2. CCCCNCCC(=O)Nc1ccc2c(c1)C(=O)c1cc(NC(=O)CCNCCCC)ccc1C2=O 95
3. O=C(CCN1CCNCC1)Nc1ccc2c(c1)C(=O)c1cc(NC(=O)CCN3CCNCC3)ccc1C2=O 118

In: Find the recorded activity at 10 µM belonging to O=C(CCN1CCCCC1)Nc1ccc2c(c1)C(=O)c1cc(NC(=O)CCN3CCCCC3)ccc1C2=O and report it.
Out: 226

In: // activity at 10 µM lookup, key: O=C(CN1CCCCC1)Nc1ccc2c(c1)C(=O)c1cc(NC(=O)CN3CCCCC3)ccc1C2=O
Out: 121

In: # lookup: activity at 10 µM of CCN(CC)CC(=O)Nc1ccc2c(c1)C(=O)c1cc(NC(=O)CN(CC)CC)ccc1C2=O
Out: 131

In: Endpoint output: activity at 10 µM of O=C(Nc1ccc2c(c1)C(=O)c1cc(NC(=O)c3ccccc3)ccc1C2=O)c1ccccc1 . Value?
Out: 72
